- EXPERIMENTAL DETAILS: qHTS Screen of the MIPE 4.0 Collection Against Ewings Sarcoma (TC71) (AID 1259253); also: nearly all actives have a fitted effect of over 40% in size
- MEASUREMENT CONTEXT: TC71 Ewing sarcoma viability, CellTiter-Glo, 48 h; series mostly up to 45.8 µM
Records with an inconclusive call do not appear. The source made the active and inactive calls. Calls follow the shape of the dose curve; as a rule, active = well fitted inhibition curve with a large enough effect; inconclusive = small, poorly fitted or top-dose-only effect; inactive = no such curve, though single readings can be large or run the other way.
Lab note: assign the record to one of T for active, F for inactive

Example entries and their recorded answers appear below.
CC(c1cc2ccccc2s1)N(O)C(N)=O (configuration not stated)
F
Cc1cc([C@@H](C)Nc2ccccc2C(=O)O)c2nc(N3CCOCC3)cc(=O)n2c1
T
CCOC(=O)N[C@@H]1CC[C@@H]2[C@@H](C1)C[C@H]1C(=O)O[C@H](C)[C@H]1[C@@H]2C=Cc1ccc(-c2cccc(F)c2)cn1
T
Clc1cccc(Cl)c1NC1=NCCN1
F
Cc1cc(SCc2sc(-c3ccc(C(F)(F)F)cc3)nc2C)ccc1OCC(=O)O
T

Outcome logged for `CCOc1cc(N2CCC(O)CC2)ccc1Nc1ncc2c(n1)N(C)c1ccccc1C(=O)N2C` in this assay: T

Outcome logged for `Cc1cn[nH]c1` in this assay: T

Outcome logged for `CCOC(=O)C1=C[C@]2(CC)CCCN3CCc4c(n1c1ccccc41)[C@@H]32` in this assay: T

---

- Test system: ATS189
- EXPERIMENTAL DETAILS: qHTS profiling for inhibitors of Plasmodium falciparum proliferation (AID 504749); also: nearly all actives have a fitted effect of over 60% in size
- MEASUREMENT CONTEXT: P. falciparum in erythrocytes, SYBR Green DNA, 72 h; series mostly up to 28.7 µM
Records with an inconclusive call do not appear. Active and inactive are the calls of the source. The call rests on the fitted dose curve; in most records, active means well fitted inhibition curve with a large enough effect; inconclusive means small, poorly fitted or top-dose-only effect; inactive means flat fitted curve, though single readings scatter.
Lab note: assign the record to one of active, inactive

N#Cc1ccc(C(c2ccc(C#N)cc2)n2cncn2)cc1
inactive
OC(CN1CCC(Cc2ccc(F)cc2)CC1)c1ccc(Cl)cc1 (stereo not given)
active

Outcome logged for `NS(=O)(=O)c1cc2c(cc1Cl)NC=NS2(=O)=O` in this assay: inactive

Outcome logged for COc1ccc2nc(S(=O)Cc3ncc(C)c(OC)c3C)[nH]c2c1 (stereo not given) in this assay: inactive

Outcome logged for `NCCc1ccc(O)c(O)c1` in this assay: inactive

Outcome logged for Oc1ccc(C2CNCCc3c2cc(O)c(O)c3Cl)cc1 (stereo not given) in this assay: inactive

Outcome logged for `Nc1nc2c(ncn2COCCO)c(=O)[nH]1` in this assay: inactive

Outcome logged for CC(c1cc2ccccc2s1)N(O)C(N)=O (stereo not given) in this assay: inactive

Outcome logged for `CNC[C@H](O)c1cccc(O)c1` in this assay: inactive

Outcome logged for `NC[C@H](O)c1ccc(O)c(O)c1` in this assay: inactive

---

- Tested on: PA-1
- EXPERIMENTAL DETAILS: Primary qHTS to identify gynecologic anti-cancer compounds using libraries of approved drugs and bioactive compounds (AID 1345084); also: nearly all actives have a fitted effect of over 55% in size
- MEASUREMENT CONTEXT: Gynecologic cancer cell panel viability, ATPlite luminescence, 48 h; series mostly up to 57.5 µM
Results filed as inconclusive are left out. Calls of active or inactive are those of the source. Calls follow the shape of the dose curve; as a rule, active = well fitted cell-killing curve with a large enough effect; inconclusive = small, poorly fitted or top-dose-only effect, or effect the other way; inactive = flat fitted curve, though single readings scatter.
Lab note: assign the record to one of TRUE for active, FALSE for inactive

Example entries and their recorded answers appear below.
CCc1cncnc1N1CCN(Cc2nc3ccc(C(F)(F)F)cc3[nH]2)CC1
FALSE
Nc1nc2c(ncn2COCCO)c(=O)[nH]1
FALSE
CCCC(CCC)C(=O)O
FALSE
O=c1n(CCCN2CCN(c3cccc(Cl)c3)CC2)nc2ccccn12
FALSE
Cc1[nH]c(=O)c(C#N)cc1-c1ccncc1
FALSE

Outcome logged for COc1cccc2cc(-c3nc(C4CCC(C(=O)O)CC4)n4ncnc(N)c34)[nH]c12 (centres undefined) in this assay: TRUE

Outcome logged for `C#Cc1cccc(Nc2ncnc3cc(OCCOC)c(OCCOC)cc23)c1` in this assay: FALSE

Outcome logged for `O=C(c1cc(Cc2n[nH]c(=O)c3ccccc23)ccc1F)N1CCN(C(=O)C2CC2)CC1` in this assay: FALSE

Outcome logged for `Cn1cnc2c(F)c(Nc3ccc(Br)cc3Cl)c(C(=O)NOCCO)cc21` in this assay: FALSE

Outcome logged for COc1ccc2nc(S(=O)Cc3ncc(C)c(OC)c3C)[nH]c2c1 (centres undefined) in this assay: FALSE

Outcome logged for CCN(CC)CCCC(C)Nc1ccnc2cc(Cl)ccc12 (centres undefined) in this assay: FALSE

Outcome logged for `CC[C@@H](C)[C@H](NC(=O)[C@H](CC1CCCCC1)NC(=O)c1ccno1)C(=O)N1CCC2(CCc3ccccc32)CC1` in this assay: FALSE

Outcome logged for `CNCc1ccc(-c2[nH]c3cc(F)cc4c3c2CCNC4=O)cc1` in this assay: FALSE

Outcome logged for `Cc1cn[nH]c1` in this assay: FALSE

Outcome logged for `C[C@]12CCC(=O)C=C1CC[C@@H]1[C@@H]2[C@@H](O)C[C@@]2(C)[C@H]1CC[C@]2(O)C(=O)CO` in this assay: FALSE

---

- System: CP315
- EXPERIMENTAL DETAILS: qHTS profiling for inhibitors of Plasmodium falciparum proliferation (AID 504749); also: nearly all actives have a fitted effect of over 60% in size
- MEASUREMENT CONTEXT: P. falciparum in erythrocytes, SYBR Green DNA, 72 h; series mostly up to 28.7 µM
Results filed as inconclusive are left out. Active and inactive are the calls of the source. Calls follow the shape of the dose curve; as a rule, active = well fitted inhibition curve with a large enough effect; inconclusive = small, poorly fitted or top-dose-only effect; inactive = flat fitted curve, though single readings scatter.
Lab note: assign the record to one of 1.0 (active), 0.0 (inactive)

Example entries and their recorded answers appear below.
CCCc1nc2c(C)cc(-c3nc4ccccc4n3C)cc2n1Cc1ccc(-c2ccccc2C(=O)O)cc1
0.0
CC(C)C[C@H](NC(=O)[C@@H](O)[C@H](N)Cc1ccccc1)C(=O)O
1.0
O=c1[nH]cnc2[nH]ncc12
0.0
Clc1cccc(Cl)c1NC1=NCCN1
0.0
O=C1CCc2cc(OCCCCc3nnnn3C3CCCCC3)ccc2N1
0.0

Now take the following molecule into account.
Outcome logged for `Cc1[nH]c(=O)c(C#N)cc1-c1ccc2nccn2c1` in this assay: 0.0

---

- EXPERIMENTAL DETAILS: Quantitative High-Throughput drug screen in 47 multiple myeloma cell lines against the NCATS MIPE library collection: H1112_PLB cell viability assay (AID 1918967; also: nearly all actives have a fitted effect of over 30% in size)
- MEASUREMENT CONTEXT: H1112 myeloma cells viability, ATP luminescence, 48 h; series mostly up to 45.8 µM
Inconclusive results are not listed. The source made the active and inactive calls. Calls follow the shape of the dose curve; as a rule, active = well fitted cell-killing curve with a large enough effect; inconclusive = small, poorly fitted or top-dose-only effect, or effect the other way; inactive = no such curve, though single readings can be large or run the other way.
Lab note: assign the record to one of active, inactive

Example entries and their recorded answers appear below.
COc1ccc(CCN2CCN(CCCc3ccccc3)CC2)cc1OC
inactive
Cc1oncc1C(=O)Nc1ccc(C(F)(F)F)cc1
active
CC(C[N+](C)(C)C)OC(N)=O (stereo unspecified)
inactive
NC(=O)C1CCCc2c1[nH]c1ccc(Cl)cc21 (stereo unspecified)
inactive
Cc1cc(C=c2sc3nc4ccccc4n3c2=O)c(C)n1-c1ccccc1
inactive
COc1nc(-c2ccc3c(c2)OCO3)n(-c2ccc(NC(=O)CSc3ccccc3)cc2)n1
inactive
CCn1cc(C(=O)O)c(=O)c2cc(F)c(N3CCNC(C)C3)c(F)c21 (stereo unspecified)
inactive
CCN(c1ccccc1)c1cc(NC)[n+](C)c(C)n1
inactive

Outcome logged for `COc1cc(F)c(F)c(Nc2ccc(I)cc2F)c1NS(=O)(=O)C1(C[C@H](O)CO)CC1` in this assay: active

Outcome logged for `CC(C)C[C@H](NC(=O)[C@@H](O)[C@H](N)Cc1ccccc1)C(=O)O` in this assay: active

Outcome logged for `O=C(C1CC1)N1CC[C@@H](Cn2c(-c3ccc(-c4ccc5occc5c4)cc3)nc3cnccc32)C1` in this assay: inactive

---

- ASSAY SYSTEM: Peroxisome proliferator-activated receptor alpha (Homo sapiens)
- EXPERIMENTAL DETAILS: qHTS assay for small molecule agonists of the peroxisome proliferator-activated receptor alpha (PPARalpha) signaling pathway (AID 651778); also: % of control where 0% means no effect
- MEASUREMENT CONTEXT: PathHunter PPARalpha complementation, chemiluminescence, 6 h; stronger effect = higher value
Entries and their measured max response follow.
Use % as the unit, but write only the number.

Known max response results, listed for orientation:
NS(=O)(=O)c1cc2c(cc1Cl)NC=NS2(=O)=O
-1.54
NC(N)=NC(=O)c1nc(Cl)c(N)nc1N
-5.82
O=NN(CCCl)C(=O)NCCCl
-2.23

For record Cc1ccccc1C(OCCN(C)C)c1ccccc1 (configuration not stated) the listed max response is -4.12

For record `Cc1[nH]c(=O)c(C#N)cc1-c1ccncc1` the listed max response is 0.228

For record O=C1CCC(N2C(=O)c3ccccc3C2=O)C(=O)N1 (configuration not stated) the listed max response is -0.602

For record `CNC[C@H](O)c1cccc(O)c1` the listed max response is -0.749

---

- EXPERIMENTAL DETAILS: Primary qHTS for inhibitors of nuclear receptor binding SET domain protein 2 (NSD2) in an isogenic RCH-ACV NSD2 p.E1099K mutant (9B) (AID 1645876); also: nearly all actives have a fitted effect of over 70% in size; also: potency is read from the fitted curve at half-maximal effect
- MEASUREMENT CONTEXT: RCH-ACV (leukaemia line) NSD2 E1099K (9B) viability, CellTiter-Glo, 72 h; series mostly up to 44.9 µM
Inconclusive results are not listed. Activity calls are given as the source filed them. Calls follow the shape of the dose curve; as a rule, active = well fitted inhibition curve with a large enough effect; inconclusive = small, poorly fitted or top-dose-only effect; inactive = flat fitted curve, though single readings scatter.
ASSAY METRIC: Potency

Known Potency results, listed for orientation:
NC(=O)c1ccc(I)c([N+](=O)[O-])c1
18.6 µM (active)
Oc1ccc(C2CNCCc3c2cc(O)c(O)c3Cl)cc1 (stereo unspecified)
inactive
Oc1cccc(-c2nc(N3CCOCC3)c3oc4ncccc4c3n2)c1
0.118 µM (active)
N[C@@H]1CONC1=O
inactive

For record `CCCc1nc2c(C)cc(-c3nc4ccccc4n3C)cc2n1Cc1ccc(-c2ccccc2C(=O)O)cc1` the listed Potency is inactive

For record CCc1ccc(CCOc2ccc(CC3SC(=O)NC3=O)cc2)nc1 (stereo unspecified) the listed Potency is inactive

For record COc1ccc2nc(S(=O)Cc3ncc(C)c(OC)c3C)[nH]c2c1 (stereo unspecified) the listed Potency is inactive

For record `Cc1cc2c(C(C)C)c(O)c(O)c(C=O)c2c(O)c1-c1c(C)cc2c(C(C)C)c(O)c(O)c(C=O)c2c1O` the listed Potency is 10.5 µM (active)
